Organism: Rattus norvegicus
Test: Antioxytoxic activity in vitro in isolated uteri from estrogen pretreated rats suspended in Mg-free Dyke-Hastings solution.
Conditions: read-out: pA2 (converted)
Starred links: 1 amine or outer side, 2 acyl side, 3 side chain; linkers in the order of their positions; H or OH if unused. Positions of bridges follow the written chain, without caps; N, C: chain ends. Non-standard residues stand in square brackets, D forms with d. Residues, ends and D or L forms follow the SMILES beside them. X1 = O=C(CC1(S[*:2])CCCCC1)[*:1]; Orn = NCCC[C@H](N)C(=O)O
outcome measure: Kb (µM)
One number for each entry, in µM.

- compound: "CC[C@H](C)[C@@H]1NC(=O)[C@@H](Cc2ccc(OC)cc2)NC(=O)CC2(CCCCC2)SSC[C@@H](C(=O)N2CCC[C@H]2C(=O)N[C@@H](CCCN=C(N)N)C(=O)NCC(N)=O)NC(=O)[C@H](CC(N)=O)NC(=O)[C@H](C(C)C)NC1=O"
  Kb (µM): 0.0224

I'm hoping you can list Kb for every compound here, please.
1. CCOc1ccc(C[C@H]2NC(=O)CC3(CCCCC3)SSC[C@@H](C(=O)N3CCC[C@H]3C(=O)N[C@@H](CCCCN)C(=O)NCC(N)=O)NC(=O)[C@H](CC(N)=O)NC(=O)[C@H](C(C)C)NC(=O)[C@H](Cc3ccccc3)NC2=O)cc1 ([dY](Et)FVNCPKG-NH2; linker N-5 via X1)
2. CC[C@H](C)[C@@H]1NC(=O)[C@H](Cc2ccc(OC)cc2)NC(=O)CC2(CCCCC2)SSC[C@@H](C(=O)N2CCC[C@H]2C(=O)N[C@@H](CCCN)C(=O)N[C@@H](C)C(N)=O)NC(=O)[C@H](CC(N)=O)NC(=O)[C@H]([C@@H](C)O)NC1=O
3. COc1ccc(C[C@H]2NC(=O)CC3(CCCCC3)SSC[C@@H](C(=O)N3CC=C[C@H]3C(=O)N[C@@H](CCCN=C(N)N)C(=O)NCC(N)=O)NC(=O)[C@H](CC(N)=O)NC(=O)[C@H](C(C)C)NC(=O)[C@H](Cc3ccccc3)NC2=O)cc1
4. CC[C@H](C)[C@@H]1NC(=O)C(Cc2ccc(OC)cc2)NC(=O)CC2(CCCCC2)SSC[C@@H](C(=O)N2CCC[C@H]2C(=O)N[C@@H](CCCN=C(N)N)C(=O)NCC(N)=O)NC(=O)[C@H](CC(N)=O)NC(=O)[C@H](CCC(N)=O)NC1=O (stereo in doubt)
5. CC[C@H](C)[C@@H]1NC(=O)[C@H](Cc2ccc(OC)cc2)NC(=O)CC2(CCCCC2)SSC[C@@H](C(=O)N2CCC[C@H]2C(=O)N[C@@H](CCCN)C(=O)N[C@@H](CC(C)C)C(N)=O)NC(=O)[C@H](CC(N)=O)NC(=O)[C@H]([C@@H](C)O)NC1=O (Y(Me)ITNCP[Orn]L-NH2; linker N-5 via X1)
6. CC[C@H](C)[C@@H]1NC(=O)[C@H](Cc2ccc(OC)cc2)NC(=O)CC2(CCCCC2)SSC[C@@H](C(=O)N2CCC[C@H]2C(=O)N[C@@H](CCCN)C(=O)N[C@@H](CCCN=C(N)N)C(N)=O)NC(=O)[C@H](CC(N)=O)NC(=O)[C@H]([C@@H](C)O)NC1=O

-- reply
0.0135
0.024
0.0132
0.00191
0.0166
0.0204

Record Kb per entry; entries follow.
1. CC[C@H](C)[C@@H]1NC(=O)[C@H](Cc2ccc(OC)cc2)NC(=O)CC2(CCCCC2)SSC[C@@H](C(=O)N2CCC[C@H]2C(=O)N[C@@H](CCCN)C(=O)O)NC(=O)[C@H](CC(N)=O)NC(=O)[C@H]([C@@H](C)O)NC1=O (Y(Me)ITNCP[Orn]-OH; linker N-5 via X1)
2. COc1ccc(C[C@H]2NC(=O)CC3(CCCCC3)SSC[C@@H](C(=O)N3CCC[C@H]3C(=O)N[C@@H](CCCN=C(N)N)C(=O)NCC(N)=O)NC(=O)[C@H](CC(N)=O)NC(=O)[C@H](CCC(N)=O)NC(=O)[C@H](Cc3ccccc3)NC2=O)cc1
3. CC[C@H](C)[C@@H]1NC(=O)[C@@H](Cc2ccccc2)NC(=O)CC2(CCCCC2)SSC[C@@H](C(=O)N2CCC[C@H]2C(=O)N[C@@H](CCCN=C(N)N)C(=O)NCC(N)=O)NC(=O)[C@H](CC(N)=O)NC(=O)[C@H](C(C)C)NC1=O
4. CC[C@H](C)[C@@H]1NC(=O)C(Cc2ccc(OC)cc2)NC(=O)CC2(CCCCC2)SSC[C@@H](C(=O)N2CCC[C@H]2C(=O)N[C@@H](CCCCN)C(=O)NCC(N)=O)NC(=O)[C@H](CC(N)=O)NC(=O)[C@H](CCC(N)=O)NC1=O (stereo in doubt)
5. CC[C@H](C)[C@@H]1NC(=O)[C@H](Cc2ccc(OC)cc2)NC(=O)CC2(CCCCC2)SSC[C@@H](C(=O)N2CCC[C@H]2C(=O)N[C@@H](CCCN)C(N)=O)NC(=O)[C@H](CC(N)=O)NC(=O)[C@H]([C@@H](C)O)NC1=O (Y(Me)ITNCP[Orn]-NH2; linker N-5 via X1)

-- reply
0.0129
0.0135
0.0129
0.0234
0.00676

====

Test system: Rattus norvegicus
Assay: Antioxytocic potencies (change in interuterine pressure) in vivo in estrogen pre-treated rats.
Assay type: functional, organism-based
Conditions: read-out: pA2 (converted)
Starred links: 1 amine or outer side, 2 acyl side, 3 side chain; linkers in the order of their positions; H or OH if unused. Positions of bridges follow the written chain, without caps; N, C: chain ends. Non-standard residues stand in square brackets, D forms with d. Residues, ends and D or L forms follow the SMILES beside them. X1 = O=C(CC1(S[*:2])CCCCC1)[*:1]; Orn = NCCC[C@H](N)C(=O)O
Exercise: for every item that follows, state its recorded Kb.
One number for each entry, in nM.

Use these answered entries as a reference point.
- compound: "CC[C@H](C)[C@@H]1NC(=O)[C@H](Cc2ccc(OC)cc2)NC(=O)CC2(CCCCC2)SSC[C@@H](C(=O)N2CCC[C@H]2C(=O)N[C@@H](CCCN)C(=O)N[C@@H](CC(C)C)C(N)=O)NC(=O)[C@H](CC(N)=O)NC(=O)[C@H]([C@@H](C)O)NC1=O (Y(Me)ITNCP[Orn]L-NH2; linker N-5 via X1)"
  Kb [nM]: 26.9
- compound: "CC[C@H](C)[C@@H]1NC(=O)[C@@H](Cc2ccc(OC)cc2)NC(=O)CC2(CCCCC2)SSC[C@@H](C(=O)N2CCC[C@H]2C(=O)N[C@@H](CCCN=C(N)N)C(=O)NCC(N)=O)NC(=O)[C@H](CC(N)=O)NC(=O)[C@H](C(C)C)NC1=O"
  Kb [nM]: 33.1
- compound: "CC[C@H](C)[C@@H]1NC(=O)[C@H](Cc2ccc(OC)cc2)NC(=O)CC2(CCCCC2)SSC[C@@H](C(=O)N2CCC[C@H]2C(=O)N[C@@H](CCCN)C(=O)N[C@@H](C)C(N)=O)NC(=O)[C@H](CC(N)=O)NC(=O)[C@H]([C@@H](C)O)NC1=O"
  Kb [nM]: 34.7

# ---- query compound ----
Just so you know, measured Kb for CC[C@H](C)[C@@H]1NC(=O)[C@H](Cc2ccc(OC)cc2)NC(=O)CC2(CCCCC2)SSC[C@@H](C(=O)N2CCC[C@H]2C(=O)N[C@@H](CCCN)C(=O)N[C@@H](Cc2ccc(O)cc2)C(N)=O)NC(=O)[C@H](CC(N)=O)NC(=O)[C@H]([C@@H](C)O)NC1=O (Y(Me)ITNCP[Orn]Y-NH2; linker N-5 via X1) came out at 14.8

====

System: Rattus norvegicus
Assay: Antioxytocic potencies (change in interuterine pressure) in vivo in estrogen pre-treated rats.
Type: functional, organism-based
Conditions: read-out: pA2 (converted)
Starred links: 1 amine or outer side, 2 acyl side, 3 side chain; linkers in the order of their positions; H or OH if unused. Positions of bridges follow the written chain, without caps; N, C: chain ends. Non-standard residues stand in square brackets, D forms with d. Residues, ends and D or L forms follow the SMILES beside them. X1 = O=C(CC1(S[*:2])CCCCC1)[*:1]; Orn = NCCC[C@H](N)C(=O)O
Sorting guide: entries reporting Kb beneath 30 nM go in the t pile, the rest go in the f pile.

Would you please look over these solved cases?
- molecule: "CC[C@H](C)[C@@H]1NC(=O)C(Cc2ccc(OC)cc2)NC(=O)CC2(CCCCC2)SSC[C@@H](C(=O)N2CCC[C@H]2C(=O)N[C@@H](CCCN=C(N)N)C(=O)NCC(N)=O)NC(=O)[C@H](CC(N)=O)NC(=O)[C@H](CCC(N)=O)NC1=O (stereo in doubt)"
  label value: "t"
- molecule: "CC[C@H](C)[C@@H]1NC(=O)[C@H](Cc2ccc(OC)cc2)NC(=O)CC2(CCCCC2)SSC[C@@H](C(=O)N2CCC[C@H]2C(=O)N[C@@H](CCCN)C(N)=O)NC(=O)[C@H](CC(N)=O)NC(=O)[C@H]([C@@H](C)O)NC1=O (Y(Me)ITNCP[Orn]-NH2; linker N-5 via X1)"
  label value: "t"
- molecule: "CC[C@H](C)[C@@H]1NC(=O)[C@H](Cc2ccc(OC)cc2)NC(=O)CC2(CCCCC2)SSC[C@@H](C(=O)N2CCC[C@H]2C(=O)N[C@@H](CCCN)C(=O)NCC(N)=O)NC(=O)[C@H](CC(N)=O)NC(=O)[C@H]([C@@H](C)O)NC1=O (Y(Me)ITNCP[Orn]G-NH2; linker N-5 via X1)"
  label value: "t"

-- ask # check: Kb < 30 nM for CCOc1ccc(C[C@H]2NC(=O)CC3(CCCCC3)SSC[C@@H](C(=O)N3CCC[C@H]3C(=O)N[C@@H](CCCCN)C(=O)NCC(N)=O)NC(=O)[C@H](CC(N)=O)NC(=O)[C@H](C(C)C)NC(=O)[C@H](Cc3ccccc3)NC2=O)cc1 ([dY](Et)FVNCPKG-NH2; linker N-5 via X1)
-- reply t

-- ask Is Kb strictly under 30 nM for the entry CC[C@H](C)[C@@H]1NC(=O)[C@H](Cc2ccc(OC)cc2)NC(=O)CC2(CCCCC2)SSC[C@@H](C(=O)N2CCC[C@H]2C(=O)N[C@@H](CCCN)C(=O)NCC(N)=O)NC(=O)[C@H](CC(N)=O)NC(=O)[C@H](CCC(N)=O)NC1=O (Y(Me)IQNCP[Orn]G-NH2; linker N-5 via X1) ?
-- reply f

-- ask Hello, is Kb of the following molecule strictly smaller than 30 nM? COc1ccc(C[C@@H]2NC(=O)CC3(CCCCC3)SSC[C@@H](C(=O)N3CCC[C@H]3C(=O)N[C@@H](CCCN=C(N)N)C(=O)NCC(N)=O)NC(=O)[C@H](CC(N)=O)NC(=O)[C@H](C(C)C)NC(=O)[C@H](Cc3ccccc3)NC2=O)cc1
-- reply f

-- ask # strict comparison: is reported Kb < 30 nM? input = CC[C@H](C)[C@@H]1NC(=O)[C@@H](Cc2ccccc2)NC(=O)CC2(CCCCC2)SSC[C@@H](C(=O)N2CCC[C@H]2C(=O)N[C@@H](CCCN=C(N)N)C(=O)NCC(N)=O)NC(=O)[C@H](CC(N)=O)NC(=O)[C@H](C(C)C)NC1=O
-- reply f

-- ask Dear colleague, could you confirm whether Kb of CCOc1ccc(C[C@H]2NC(=O)CC3(CCCCC3)SSC[C@@H](C(=O)N3CCC[C@H]3C(=O)N[C@@H](CCCNC(N)=O)C(=O)NCC(N)=O)NC(=O)[C@H](CC(N)=O)NC(=O)[C@H](C(C)C)NC(=O)[C@H](Cc3ccccc3)NC2=O)cc1 falls below 30 nM? Thanks.
-- reply t

Reference for the values: ChEMBL document CHEMBL1124668
